Numbers sourced from patent US20190185537A1.

- TARGET_SYSTEM: human glucagon receptor (human, UniProt P47871 26-477)
- Sequence (P47871 26-477): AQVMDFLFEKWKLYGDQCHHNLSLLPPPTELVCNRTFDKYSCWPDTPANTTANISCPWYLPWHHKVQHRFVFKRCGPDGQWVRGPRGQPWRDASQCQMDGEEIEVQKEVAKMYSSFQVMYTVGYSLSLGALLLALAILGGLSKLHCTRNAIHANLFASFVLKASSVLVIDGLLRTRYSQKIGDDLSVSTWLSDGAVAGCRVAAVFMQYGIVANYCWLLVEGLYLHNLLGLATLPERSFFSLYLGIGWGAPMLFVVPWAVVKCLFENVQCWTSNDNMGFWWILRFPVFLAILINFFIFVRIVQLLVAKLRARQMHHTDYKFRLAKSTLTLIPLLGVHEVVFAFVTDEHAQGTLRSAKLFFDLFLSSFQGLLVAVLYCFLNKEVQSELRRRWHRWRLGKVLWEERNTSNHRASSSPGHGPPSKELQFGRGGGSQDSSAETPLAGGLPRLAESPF
- PROTOCOL_TEXT: cell-based or functional assay
Measured cAMP EC50 (assay 1) of individual entries
Dear colleague, please return just the value in pM, with no unit written.

See these solved cases before continuing.
HSQGTFTSDKSKYLEGQAAKEFIAWLEKGR (X10 = K(gE-palm); C-terminal amide) [G812]: 8.17
HSQGTFTSDKSSYLDSRRARDFVAWLEAGG (X10 = K(gE-palm); C-terminal amide) [G796]: 1.76
HSQGTFTSDKSSYLDSRSARDFVAWLEAGG (X10 = K(gE-palm); C-terminal amide) [G865]: 12.6

Report cAMP EC50 (assay 1) for HSQGTFTSDKSRYLDSRSARDFVAWLEAGG (X10 = K(gE-palm); C-terminal amide) [G849]
2.26
